Origin of the recorded values: patent US10202361B2

- Test system: wheat (winter wheat, Triticum aestivum)
- TEST DETAILS: Test C pre-/postemergence greenhouse herbicide test
- Type: in vivo
- ASSAY SETUP: Triticum aestivum, post-emergence; Wheat; Postemergence; 62 g ai/ha; read-out: Plant response rating
REPORTED METRIC: plant injury at 62 g/ha (%)
Give the quantity in %, number only.

Worked set:
Cc1cc(Oc2ccnc(C(F)(F)F)c2)nn(-c2ccc(C(F)(F)F)cc2)c1=O [Compound 6] :: 10
COc1cc(=O)n(-c2ccc(C(F)(F)F)cc2)nc1Cc1ccnc(C(F)(F)F)c1 [Compound 16] :: 5
COc1cc(=O)n(-c2ccc(F)cc2)nc1Cc1ccnc(C(F)(F)F)c1 [Compound 17] :: 5
Cc1cc(=O)n(-c2ccc(F)cc2)nc1Cc1ccnc(C(F)(F)F)c1 [Compound 1] :: 5
Cc1cc(=O)n(-c2ccc(F)cc2)nc1Oc1ccnc(C(F)(F)F)c1 [Compound 14] :: 5

Turning to the following compound.
plant injury at 62 g/ha in this record for Cc1cc(=O)n(-c2ccc(C(F)(F)F)cc2)nc1Cc1ccnc(C(F)(F)F)c1 [Compound 2] : 5

###

Entries and their pest or weed control at 500 g/ha
- Tested on: velvetleaf (Abutilon theophrasti)
- TEST DETAILS: Test A pre-/postemergence greenhouse herbicide test
- Format: in vivo
- ASSAY SETUP: Abutilon theophrasti, pre-emergence, 240 h; Preemergence, 500 g ai/ha; 0 to 100 scale (0 no effect, 100 complete control), approx. 10 d; read-out: Plant response rating, Velvetleaf
Please report the result as a number followed by the unit.

Worked set:
Cc1cc(=O)n(-c2ccc(C(F)(F)F)cc2)nc1Oc1ccnc(C(F)(F)F)c1 :: 100%
CCOc1cc(=O)n(-c2ccc(F)cc2)nc1C(=O)c1ccnc(C(F)(F)F)c1 :: 100%
Cc1cc(=O)n(-c2ccc(C(F)(F)F)cc2)nc1Cc1ccnc(C(F)(F)F)c1 :: 50%

pest or weed control at 500 g/ha for velvetleaf (Abutilon theophrasti) with input CCOc1cc(=O)n(-c2ccc(F)cc2)nc1C(O)c1ccnc(C(F)(F)F)c1 (centres unmarked) equals 100%

pest or weed control at 500 g/ha for velvetleaf (Abutilon theophrasti) with input `COc1cc(=O)n(-c2ccc(F)cc2)nc1Cc1ccnc(C(F)(F)F)c1` equals 100%

pest or weed control at 500 g/ha for velvetleaf (Abutilon theophrasti) with input `COc1cc(=O)n(-c2ccc(C(F)(F)F)cc2)nc1Cc1ccnc(C(F)(F)F)c1` equals 80%

pest or weed control at 500 g/ha for velvetleaf (Abutilon theophrasti) with input `Cc1cc(=O)n(-c2ccc(F)cc2)nc1Oc1ccnc(C(F)(F)F)c1` equals 100%

pest or weed control at 500 g/ha for velvetleaf (Abutilon theophrasti) with input `Cc1cc(=O)n(-c2ccc(F)cc2)nc1Cn1ccc(C(F)(F)F)n1` equals 20%

pest or weed control at 500 g/ha for velvetleaf (Abutilon theophrasti) with input `Cc1cc(Oc2ccnc(C(F)(F)F)c2)nn(-c2ccc(C(F)(F)F)cc2)c1=O` equals 80%

pest or weed control at 500 g/ha for velvetleaf (Abutilon theophrasti) with input `CCOc1cc(=O)n(-c2ccc(F)cc2)nc1Cc1ccnc(C(F)(F)F)c1` equals 100%

pest or weed control at 500 g/ha for velvetleaf (Abutilon theophrasti) with input `Cc1cc(=O)n(-c2ccc(F)cc2)nc1Cc1ccnc(C(F)(F)F)c1` equals 90%
